test-details: Distribution of Perfluoro-compound in Organs
Assay type: in vivo, Wister-strain male rats
stated-conditions: rat, in vivo, iv, 4000 mg/kg; 4 g/kg into the tail vein, male rats; calculated
experimental-endpoint: half-life
I'd appreciate it if you wrote the number followed by its unit.

[ask] Determine from records and report half-life for FC1(F)N(C2(F)C(F)(F)C(F)(F)C(F)(F)C(F)(F)C2(F)F)C(F)(F)C(F)(F)C1(F)F
[reply] 16 days
